Catalogue of compounds with associated R1 = Variant EC50/WT EC50
Target: human TAS1R2-WT/TAS1R3-A5T (Homo sapiens, UniProt Q7RTX0+Q8TE23, A5T)
Construct: expressed in transfected cells; host or cells: HEK293T stably expressing Gα16gust44
Sequence (Q8TE23 20-839): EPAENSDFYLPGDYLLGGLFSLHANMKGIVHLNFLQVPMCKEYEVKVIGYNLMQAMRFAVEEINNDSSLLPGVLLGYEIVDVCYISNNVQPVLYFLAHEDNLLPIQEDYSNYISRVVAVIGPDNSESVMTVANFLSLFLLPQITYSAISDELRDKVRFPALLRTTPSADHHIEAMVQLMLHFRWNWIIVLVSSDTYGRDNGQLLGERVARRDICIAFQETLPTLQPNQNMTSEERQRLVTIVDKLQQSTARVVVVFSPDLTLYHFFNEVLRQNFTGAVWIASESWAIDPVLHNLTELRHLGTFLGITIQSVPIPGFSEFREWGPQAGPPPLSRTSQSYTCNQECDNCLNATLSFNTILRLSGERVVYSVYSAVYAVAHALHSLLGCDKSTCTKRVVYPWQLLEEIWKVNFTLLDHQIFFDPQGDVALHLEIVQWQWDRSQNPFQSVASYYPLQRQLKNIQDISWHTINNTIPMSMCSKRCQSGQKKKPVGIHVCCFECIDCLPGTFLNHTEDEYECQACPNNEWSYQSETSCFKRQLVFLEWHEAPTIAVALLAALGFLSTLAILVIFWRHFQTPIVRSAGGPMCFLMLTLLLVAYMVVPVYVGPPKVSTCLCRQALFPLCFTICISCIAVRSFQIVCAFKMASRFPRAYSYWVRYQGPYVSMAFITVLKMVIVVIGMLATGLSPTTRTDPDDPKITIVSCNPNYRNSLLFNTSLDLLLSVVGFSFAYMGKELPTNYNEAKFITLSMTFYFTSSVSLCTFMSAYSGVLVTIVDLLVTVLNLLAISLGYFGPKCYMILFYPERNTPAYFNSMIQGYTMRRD
Sequence (Q7RTX0 21-852): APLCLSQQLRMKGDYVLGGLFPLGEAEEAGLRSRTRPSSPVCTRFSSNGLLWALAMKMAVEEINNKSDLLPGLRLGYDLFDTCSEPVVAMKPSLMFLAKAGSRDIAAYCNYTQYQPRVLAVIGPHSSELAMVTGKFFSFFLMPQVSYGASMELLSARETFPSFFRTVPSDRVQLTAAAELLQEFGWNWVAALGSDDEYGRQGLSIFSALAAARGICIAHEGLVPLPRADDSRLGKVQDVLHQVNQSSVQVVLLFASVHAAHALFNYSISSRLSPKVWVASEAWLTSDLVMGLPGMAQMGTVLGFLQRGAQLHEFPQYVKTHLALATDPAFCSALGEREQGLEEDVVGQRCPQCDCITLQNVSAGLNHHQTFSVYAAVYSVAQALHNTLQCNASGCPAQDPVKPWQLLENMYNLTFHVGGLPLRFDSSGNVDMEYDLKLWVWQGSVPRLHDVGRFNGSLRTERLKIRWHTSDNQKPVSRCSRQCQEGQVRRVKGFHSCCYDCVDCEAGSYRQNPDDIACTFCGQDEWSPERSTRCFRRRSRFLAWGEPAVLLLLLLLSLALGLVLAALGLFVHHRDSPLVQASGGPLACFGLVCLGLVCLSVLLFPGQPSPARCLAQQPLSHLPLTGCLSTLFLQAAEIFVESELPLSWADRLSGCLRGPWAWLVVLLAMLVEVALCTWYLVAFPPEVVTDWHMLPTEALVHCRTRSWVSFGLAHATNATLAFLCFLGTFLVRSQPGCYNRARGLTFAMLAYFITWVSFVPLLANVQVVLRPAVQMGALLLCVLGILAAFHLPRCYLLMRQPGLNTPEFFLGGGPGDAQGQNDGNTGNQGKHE
Test: Calcium mobilisation assay, TAS1R2-WT with TAS1R3 variant A5T
Type: cell-based
PROPERTY NAME: R1 = Variant EC50/WT EC50

{"columns": ["COMPOUND", "PROPERTY NAME", "MEASURED RESULT"],
 "data": [
  ["OC[C@H]1O[C@H](O[C@]2(CCl)O[C@H](CCl)[C@@H](O)[C@@H]2O)[C@H](O)[C@@H](O)[C@H]1Cl", "R1 = Variant EC50/WT EC50", 1.2],
  ["COc1ccc(CCC(=O)c2c(O)cc(O[C@@H]3O[C@H](CO)[C@@H](O)[C@H](O)[C@H]3O[C@@H]3O[C@@H](C)[C@H](O)[C@@H](O)[C@H]3O)cc2O)cc1O [NHDC, neohesperidin dihydrochalcone]", "R1 = Variant EC50/WT EC50", 1.5],
  ["C=C(C)[C@@H]1CC=C(/C=N/O)CC1", "R1 = Variant EC50/WT EC50", 1.0],
  ["C=C1C[C@@]23CC[C@H]4[C@@](C)(CCC[C@@]4(C)C(=O)O[C@@H]4O[C@H](CO)[C@@H](O)[C@H](O[C@@H]5O[C@H](CO)[C@@H](O)[C@H](O)[C@H]5O)[C@H]4O[C@@H]4O[C@H](CO)[C@@H](O)[C@H](O)[C@H]4O)[C@@H]2CC[C@]1(O[C@@H]1O[C@H](CO)[C@@H](O)[C@H](O[C@@H]2O[C@H](CO)[C@@H](O)[C@H](O)[C@H]2O)[C@H]1O[C@@H]1O[C@H](CO)[C@@H](O)[C@H](O)[C@H]1O)C3 [Rebaudioside M, rebaudioside M]", "R1 = Variant EC50/WT EC50", 0.7],
  ["COC(=O)[C@H](Cc1ccccc1)NC(=O)[C@H](CC(=O)O)NCCC(C)(C)C", "R1 = Variant EC50/WT EC50", 1.0],
  ["C[C@H](CC[C@@H](O[C@@H]1O[C@H](CO[C@@H]2O[C@H](CO)[C@@H](O)[C@H](O)[C@H]2O)[C@@H](O)[C@H](O)[C@H]1O[C@@H]1O[C@H](CO)[C@@H](O)[C@H](O)[C@H]1O)C(C)(C)O)[C@H]1CC[C@@]2(C)[C@@H]3CC=C4[C@@H](CC[C@H](O[C@@H]5O[C@H](CO[C@@H]6O[C@H](CO)[C@@H](O)[C@H](O)[C@H]6O)[C@@H](O)[C@H](O)[C@H]5O)C4(C)C)[C@]3(C)[C@H](O)C[C@]12C [Mogroside V, mogroside V]", "R1 = Variant EC50/WT EC50", 1.0],
  ["CC1=CC(=O)NS(=O)(=O)O1", "R1 = Variant EC50/WT EC50", 1.4]
]}

###

target: human TAS1R2-WT/TAS1R3-F514L (Homo sapiens, UniProt Q7RTX0+Q8TE23, F514L); construct: expressed in transfected cells; host or cells: HEK293T stably expressing Gα16gust44; experiment: Calcium mobilisation assay, TAS1R2-WT with TAS1R3 variant F514L; assay type: cell-based; conditions: read-out: EC50
PROPERTY NAME: log10(EC50) (log10 of the value in µM)

{"columns": ["MOLECULE", "TGT", "MEASURED RESULT"],
 "data": [
  ["C=C1C[C@@]23CC[C@H]4[C@@](C)(CCC[C@@]4(C)C(=O)O[C@@H]4O[C@H](CO)[C@@H](O)[C@H](O[C@@H]5O[C@H](CO)[C@@H](O)[C@H](O)[C@H]5O)[C@H]4O[C@@H]4O[C@H](CO)[C@@H](O)[C@H](O)[C@H]4O)[C@@H]2CC[C@]1(O[C@@H]1O[C@H](CO)[C@@H](O)[C@H](O[C@@H]2O[C@H](CO)[C@@H](O)[C@H](O)[C@H]2O)[C@H]1O[C@@H]1O[C@H](CO)[C@@H](O)[C@H](O)[C@H]1O)C3 [Rebaudioside M, rebaudioside M]", "human TAS1R2-WT/TAS1R3-F514L (Homo sapiens, UniProt Q7RTX0+Q8TE23, F514L)", 1.51],
  ["COc1ccc(CCC(=O)c2c(O)cc(O[C@@H]3O[C@H](CO)[C@@H](O)[C@H](O)[C@H]3O[C@@H]3O[C@@H](C)[C@H](O)[C@@H](O)[C@H]3O)cc2O)cc1O [NHDC, neohesperidin dihydrochalcone]", "human TAS1R2-WT/TAS1R3-F514L (Homo sapiens, UniProt Q7RTX0+Q8TE23, F514L)", 1.58],
  ["CC1=CC(=O)NS(=O)(=O)O1", "human TAS1R2-WT/TAS1R3-F514L (Homo sapiens, UniProt Q7RTX0+Q8TE23, F514L)", 2.65],
  ["C=C(C)[C@@H]1CC=C(/C=N/O)CC1", "human TAS1R2-WT/TAS1R3-F514L (Homo sapiens, UniProt Q7RTX0+Q8TE23, F514L)", 1.14],
  ["C[C@H](CC[C@@H](O[C@@H]1O[C@H](CO[C@@H]2O[C@H](CO)[C@@H](O)[C@H](O)[C@H]2O)[C@@H](O)[C@H](O)[C@H]1O[C@@H]1O[C@H](CO)[C@@H](O)[C@H](O)[C@H]1O)C(C)(C)O)[C@H]1CC[C@@]2(C)[C@@H]3CC=C4[C@@H](CC[C@H](O[C@@H]5O[C@H](CO[C@@H]6O[C@H](CO)[C@@H](O)[C@H](O)[C@H]6O)[C@@H](O)[C@H](O)[C@H]5O)C4(C)C)[C@]3(C)[C@H](O)C[C@]12C [Mogroside V, mogroside V]", "human TAS1R2-WT/TAS1R3-F514L (Homo sapiens, UniProt Q7RTX0+Q8TE23, F514L)", 1.65],
  ["OC[C@H]1O[C@H](O[C@]2(CCl)O[C@H](CCl)[C@@H](O)[C@@H]2O)[C@H](O)[C@@H](O)[C@H]1Cl", "human TAS1R2-WT/TAS1R3-F514L (Homo sapiens, UniProt Q7RTX0+Q8TE23, F514L)", 2.15],
  ["COC(=O)[C@H](Cc1ccccc1)NC(=O)[C@H](CC(=O)O)NCCC(C)(C)C", "human TAS1R2-WT/TAS1R3-F514L (Homo sapiens, UniProt Q7RTX0+Q8TE23, F514L)", 0.09],
  ["O=S(=O)(O)NC1CCCCC1 [Cyclamate, cyclamate]", "human TAS1R2-WT/TAS1R3-F514L (Homo sapiens, UniProt Q7RTX0+Q8TE23, F514L)", 3.10]
]}
